Here, each record is paired with measured TGI data.
System: OVCAR-8 ovarian
ASSAY_EXPLANATION: NCI tumour cell line growth inhibition, 48 h

Check out these entries, answers already filled in.
COc1ccc(Nc2cnc3cc(N)ccc3n2)cc1OC	> 100 µM
CC(=O)Oc1cc(OC(C)=O)c(OC(C)=O)c2c1CC1C(=O)C3(CCc4ccccc43)C(=O)C1C2 (centres undefined)	36.7 µM
CC(C)(C)OC(=O)/C=C/[C@@H](CCC(=O)/C=C/[C@H](/C=C\CCCC(=O)O)NC1(c2ccccc2)c2ccccc2-c2ccccc21)O[Si](C)(C)C(C)(C)C	55 µM
CN(CC(=O)O)Cc1c[nH]c2ccccc12	> 100 µM
CCCCCC(=O)OC[n+]1ccc(-c2c(COC(=O)NC(C)C)c(COC(=O)NC(C)C)c3n2CCC3)cc1	> 100 µM
CC(=O)Nc1ccc(C(=O)NN2C(=O)C(Cl)C2/C=C/c2ccccc2)cc1 (centres undefined)	> 100 µM

# query: TGI of entry "COC(=O)CCC(=O)c1ccc2c(c1)CC1(Cc3ccccc3C1)C2"
> 100 µM

Query: TGI; subject: "COc1ccc2c(C(=O)NCCCCCC(=O)O)cc3cc4c(cc3c2c1)OCO4"
> 100 µM

State the recorded TGI for this entry: Cc1ccc(S(=O)(=O)N/N=C2/C3CC4CCC2C4C3)cc1 (centres undefined)
> 100 µM

----------
Test system: NCI-H460 lung
Lab note: assign the record to one of active, inactive

Some entries whose results are on file:
O=C(/C=C/c1ccco1)c1cccc(Nc2nc(Nc3ccccc3)nc(Nc3ccccc3)n2)c1	inactive
Cc1nc(N(C)C)nc(-c2cccc(-c3ccn(CCN(C)C)n3)c2)c1C	inactive
Nc1ncnc2c1c(-c1ccc(Oc3ccccc3)cc1)nn2C[C@H]1SSC[C@H]1O	active
OC(c1cc2c(Cl)cc(Cl)cc2c2cc(C(F)(F)F)ccc12)C1CCCCN1 (stereo not given)	inactive

Hi team, can someone confirm the assay call for "COc1ccc2c(C(=O)NCCCCCC(=O)O)cc3cc4c(cc3c2c1)OCO4" ?
inactive

----------
Each entry below carries its recorded TGI.
Tested on: OVCAR-4 ovarian
ASSAY_EXPLANATION: NCI tumour cell line growth inhibition, 48 h

Examples from the recorded data:
CC(NC(=O)C1(N)CCCC1)C(=O)O (configuration not stated)	> 100 µM
O=P1(NCCCl)OCCC(OO)N1CCCl (configuration not stated)	39.1 µM
O=C1OC(=O)C2C1C1(c3ccccc3)OC2(c2ccccc2)c2c(Br)c(Br)c(Br)c(Br)c21 (configuration not stated)	> 100 µM
CC1=NN(c2cccc(S(=O)(=O)O)c2)C2(C1)SCC(=O)N2c1nc2ccccc2s1 (configuration not stated)	> 100 µM

For the molecule COc1ccccc1NC(=O)C(=O)C(C#N)CC(C)(C)C=O (configuration not stated) , what TGI is on record?
> 100 µM

Recorded TGI for "N#C[C@H](c1nc2ccccc2[nH]1)c1nc2ccccc2nc1Cl" , please?
> 53.9 µM

Please report the recorded TGI for "COc1ccc(-c2cc(-c3ccncc3)nc(N)c2-c2ccc(F)cc2)cc1" .
> 100 µM

----------
Tested on: DMS 273 small cell lung
ASSAY_EXPLANATION: NCI tumour cell line growth inhibition, 48 h
PROPERTY_MEASURED: TGI

COc1cc(C2C(C(=O)Nc3ccccc3C)=C(C)NC(C)=C2C(=O)Nc2ccccc2C)ccc1O	> 100 µM
O=c1c2ccc(Br)cc2nc(-c2ccccc2)n1NC1OC(CO)C(O)C(O)C1O (centres undefined)	> 100 µM
COc1ccc(/C=C\c2cc(OC)c(OC(C)=O)c(OC)c2)cc1	> 100 µM

Let's switch to this compound now.
Endpoint output: TGI of O=C1C2Cc3ccccc3CN2C(=O)N1CCN1CCOCC1 (centres undefined) . Value?
> 100 µM

Data provenance is PubChem BioAssay (NCI).
